Target: CepR (Burkholderia cenocepacia, UniProt B4EMD0)
Sequence (B4EMD0 1-239): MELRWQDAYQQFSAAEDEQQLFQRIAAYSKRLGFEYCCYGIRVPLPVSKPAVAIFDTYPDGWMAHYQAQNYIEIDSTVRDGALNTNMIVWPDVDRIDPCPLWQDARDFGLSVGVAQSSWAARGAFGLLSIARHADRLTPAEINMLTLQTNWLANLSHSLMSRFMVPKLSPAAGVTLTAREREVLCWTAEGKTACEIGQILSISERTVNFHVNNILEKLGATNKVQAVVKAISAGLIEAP
Assay: CepR agonism in E. coli β-galactosidase reporter (Ec-reporter) JLD271 [pJN105-cepR + pSC11-cepI]
Format: cell-based, B. cenocepacia
Settings: Ec-reporter
Experimental: We began our study by screening the AHL library for CepR modulators using an E. coli-based two plasmid reporter system (Ec-reporter)[38]–[40]. […] Cells were grown for 4 h, OD600 was read, 50 μL aliquots from each well were permeabilized in 200 μL Z Buffer, and then 150 μL of this mixture used to measure the cleavage of 25 μL of 4 mg/mL CPRG in phosphate buffered saline (PBS) at 37 °C until positive control wells developed a deep red color (~30 min). […]
Property Measured: CepR agonism in words

Use the examples below as a reference point.
- Compound: "CCCCCCCS(=O)(=O)N[C@H]1CCOC1=O"
  CepR agonism in words: "failed to activate CepR"
- Compound: "CCCCCCCCCCCCCCCC(=O)N[C@H]1CCOC1=O [Compound C16-AHL, hexadecanoyl L-homoserine lactone, reference compound]"
  CepR agonism in words: "inactive"
- Compound: "CCCCCCCCS(=O)(=O)N[C@H]1CCOC1=O"
  CepR agonism in words: "failed to activate CepR"
- Compound: "CCCCCCS(=O)(=O)N[C@H]1CCOC1=O"
  CepR agonism in words: "failed to activate CepR"
- Compound: "CCCCCCCCCCCCCC(=O)N[C@H]1CCOC1=O [Compound C14-AHL, tetradecanoyl L-homoserine lactone, reference compound]"
  CepR agonism in words: "inactive"

Let us examine a further case.
Which CepR agonism in words is reported for this compound? CCCCCC(=O)CC(=O)N[C@@H]1CCOC1=O
inactive

====

Target: CepR (Burkholderia cenocepacia, UniProt B4EMD0)
Sequence (B4EMD0 1-239): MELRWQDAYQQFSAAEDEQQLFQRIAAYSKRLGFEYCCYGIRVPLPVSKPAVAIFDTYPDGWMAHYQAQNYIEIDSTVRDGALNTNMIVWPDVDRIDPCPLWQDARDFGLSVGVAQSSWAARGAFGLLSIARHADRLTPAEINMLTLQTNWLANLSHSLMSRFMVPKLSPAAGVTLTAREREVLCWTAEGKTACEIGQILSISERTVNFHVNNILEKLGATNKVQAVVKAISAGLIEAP
Assay: CepR agonism in E. coli β-galactosidase reporter (Ec-reporter) JLD271 [pJN105-cepR + pSC11-cepI]
Format: cell-based, B. cenocepacia
Conditions: Table S2, Ec-reporter; screening conc. 100 μM
Property Measured: Act% (%)
Answers are plain numbers, in %.

Use the examples below as a reference point.
- Molecule Smiles: "O=C(Cc1ccc(-c2ccccc2)cc1)N[C@H]1CCOC1=O"
  Property Measured: "Act%"
  Readout Number: 1.4
- Molecule Smiles: "O=C(N[C@H]1CCOC1=O)c1ccc(Oc2ccc(Br)cc2)cc1"
  Property Measured: "Act%"
  Readout Number: 64
- Molecule Smiles: "O=C(COc1ccc(OC(F)(F)F)cc1)N[C@H]1CCOC1=O"
  Property Measured: "Act%"
  Readout Number: 46
- Molecule Smiles: "CCCCCCCCS(=O)(=O)N[C@H]1CCOC1=O"
  Property Measured: "Act%"
  Readout Number: 108
- Molecule Smiles: "O=C(CCc1cccc(C(F)(F)F)c1)N[C@H]1CCOC1=O"
  Property Measured: "Act%"
  Readout Number: 92

I'm hoping you can list Act% for every molecule here, please.
1. O=C(N[C@H]1CCOC1=O)c1ccc(I)cc1
2. Nc1ccc(CC(=O)N[C@H]2CCOC2=O)cc1
3. Cc1ccc(CCC(=O)N[C@H]2CCOC2=O)cc1
4. O=C(CCc1ccc2c(c1)OCO2)N[C@H]1CCOC1=O
5. Cc1cccc(CCC(=O)N[C@H]2CCOC2=O)c1

[78, 21, 96, 103, 75]
